Give measured MIC for each item. Keep answers brief.
# System: Pseudomonas #28
# Assay Name: In vitro minimal inhibitory concentration, Pseudomonas #28
# Type: cell-based
# Reported Conditions: Pseudomonas #28; in vitro; read-out: Minimal Inhibitory Concentration
Kindly answer with a numeric value in mg/L, unit omitted.

Input line: Request body: readout MIC, system Pseudomonas #28, query CC(=O)OCC1=C(C(=O)O)N2C(=O)C(NC(=O)[C@H](NC(=O)c3ccc(-c4ccc(NC(=O)[C@@H]5CCC(=O)N5C)cc4)[nH]c3=O)c3ccccc3)C2SC1 (some centres unmarked) . Return the value.
Output line: 6.3

Input line: Item Cn1nnnc1SCC1=C(C(=O)O)N2C(=O)C(NC(=O)[C@H](NC(=O)c3ccc(-c4ccc(NC(=O)[C@@H]5CCC(=O)N5)cc4)[nH]c3=O)c3ccccc3)C2SC1 (some centres unmarked) with Pseudomonas #28 - MIC?
Output line: 6.3

Input line: # query: MIC | item CC(=O)N[C@@H](C)C(=O)Nc1ccc(-c2ccc(C(=O)N[C@@H](C(=O)NC3C(=O)N4C(C(=O)O)=C(CSc5nnnn5C)CSC34)c3ccccc3)c(=O)[nH]2)cc1 (some centres unmarked) | system: Pseudomonas #28
Output line: 12.5

Input line: Lab note: need MIC with Pseudomonas #28 for entry CC(=O)N[C@@H](CCC(N)=O)C(=O)Nc1ccc(-c2ccc(C(=O)N[C@@H](C(=O)NC3C(=O)N4C(C(=O)O)=C(COC(C)=O)CSC34)c3ccccc3)c(=O)[nH]2)cc1 (some centres unmarked) , please look it up.
Output line: 3.1

Input line: Form field - read-out: MIC; system: Pseudomonas #28; submitted item: CC(=O)OCC1=C(C(=O)O)N2C(=O)C(NC(=O)[C@H](NC(=O)c3ccc(-c4ccc(NC(=O)[C@@H]5CCC(=O)N5)cc4)[nH]c3=O)c3ccccc3)C2SC1 (some centres unmarked)
Output line: 12.5

Input line: Please state recorded MIC (tested on Pseudomonas #28) of CC(=O)NCCCCC(NC(C)=O)C(=O)Nc1ccc(-c2ccc(C(=O)N[C@@H](C(=O)NC3C(=O)N4C(C(=O)O)=C(COC(C)=O)CSC34)c3ccccc3)c(=O)[nH]2)cc1 (mixture of isomers)
Output line: 3.1

Input line: Please provide the recorded MIC for CC(=O)N[C@@H](C)C(=O)Nc1ccc(-c2ccc(C(=O)N[C@@H](C(=O)NC3C(=O)N4C(C(=O)O)=C(CSc5nnc(C)s5)CSC34)c3ccccc3)c(=O)[nH]2)cc1 (some centres unmarked) , tested on Pseudomonas #28.
Output line: 12.5

Input line: Tell me reported MIC for CC(=O)OCC1=C(C(=O)O)N2C(=O)C(NC(=O)[C@H](NC(=O)c3ccc(-c4ccc(NC(=O)[C@@H]5CC(OC(C)=O)CN5C(C)=O)cc4)[nH]c3=O)c3ccccc3)C2SC1 (some centres unmarked) , tested with Pseudomonas #28.
Output line: 12.5

Input line: State its MIC on Pseudomonas #28: CC(=O)N[C@H](C)C(=O)Nc1cccc(-c2ccc(C(=O)N[C@@H](C(=O)NC3C(=O)N4C(C(=O)O)=C(COC(C)=O)CSC34)c3ccccc3)c(=O)[nH]2)c1 (some centres unmarked)
Output line: 12.5

Input line: Form field - read-out: MIC; system: Pseudomonas #28; submitted item: CC(=O)NC(C)C(=O)Nc1ccc(-c2ccc(C(=O)N[C@@H](C(=O)NC3C(=O)N4C(C(=O)O)=C(CSc5nnc(C)s5)CSC34)c3ccccc3)c(=O)[nH]2)cc1 (mixture of isomers)
Output line: 12.5

Input line: Observed MIC on Pseudomonas #28 for CC(=O)N[C@H](C)C(=O)Nc1ccc(-c2ccc(C(=O)N[C@@H](C(=O)NC3C(=O)N4C(C(=O)O)=C(CSc5nnnn5CC(=O)O)CSC34)c3ccccc3)c(=O)[nH]2)cc1 (some centres unmarked) , please.
Output line: 6.3

Input line: Item: CC(=O)N[C@H](C)C(=O)Nc1ccc(-c2ccc(C(=O)N[C@@H](C(=O)NC3C(=O)N4C(C(=O)O)=C(CSc5nnnn5C)CSC34)c3ccc(O)cc3)c(=O)[nH]2)cc1 (some centres unmarked) Test system: Pseudomonas #28 Read-out: MIC Value: ?
Output line: 3.1

Input line: Request body: readout MIC, system Pseudomonas #28, query CC(=O)NC(C)(C)C(=O)Nc1ccc(-c2ccc(C(=O)N[C@@H](C(=O)NC3C(=O)N4C(C(=O)O)=C(COC(C)=O)CSC34)c3ccccc3)c(=O)[nH]2)cc1 (some centres unmarked) . Return the value.
Output line: 3.1

Input line: What MIC appears in the records for this compound with Pseudomonas #28? O=C(O)Cn1nnnc1SCC1=C(C(=O)O)N2C(=O)C(NC(=O)[C@H](NC(=O)c3ccc(-c4ccc(NC(=O)[C@@H]5CCC(=O)N5)cc4)[nH]c3=O)c3ccccc3)C2SC1 (some centres unmarked)
Output line: 3.1

Input line: Give MIC (Pseudomonas #28) of the following compound: CC(=O)N[C@H](CC(N)=O)C(=O)Nc1ccc(-c2ccc(C(=O)N[C@@H](C(=O)NC3C(=O)N4C(C(=O)O)=C(COC(C)=O)CSC34)c3ccccc3)c(=O)[nH]2)cc1 (some centres unmarked)
Output line: 12.5

Input line: Checklist item: MIC tested on Pseudomonas #28, entry CC(=O)OCC1=C(C(=O)O)N2C(=O)C(NC(=O)[C@H](NC(=O)c3ccc(-c4ccc(NC(=O)[C@@H]5CC(O)CN5C(C)=O)cc4)[nH]c3=O)c3ccccc3)C2SC1 (some centres unmarked) , value?
Output line: 12.5

Input line: Param readout = MIC; param system = Pseudomonas #28; param query = CC(=O)NCCCCC(NC(C)=O)C(=O)Nc1ccc(-c2ccc(C(=O)N[C@@H](C(=O)NC3C(=O)N4C(C(=O)O)=C(CSc5nnnn5C)CSC34)c3ccccc3)c(=O)[nH]2)cc1 (mixture of isomers) ; response: value
Output line: 12.5

Input line: Which measured MIC belongs to CC(=O)OCC1=C(C(=O)O)N2C(=O)C(NC(=O)[C@H](NC(=O)c3ccc(-c4ccc(NC(=O)[C@@H]5CCCN5C(C)=O)cc4)[nH]c3=O)c3ccccc3)C2SC1 (some centres unmarked) , tested on Pseudomonas #28?
Output line: 6.3

Input line: # value lookup — system Pseudomonas #28, readout MIC, item CC(=O)N[C@H](CC(N)=O)C(=O)Nc1ccc(-c2ccc(C(=O)N[C@@H](C(=O)NC3C(=O)N4C(C(=O)O)=C(CSc5nnnn5C)CSC34)c3ccccc3)c(=O)[nH]2)cc1 (some centres unmarked)
Output line: 12.5

Input line: Please tell me: MIC of CC(=O)N[C@@H](CCC(N)=O)C(=O)Nc1ccc(-c2ccc(C(=O)N[C@@H](C(=O)NC3C(=O)N4C(C(=O)O)=C(CSc5nnnn5C)CSC34)c3ccccc3)c(=O)[nH]2)cc1 (some centres unmarked) , system Pseudomonas #28?
Output line: 3.1
